Source of measurements: patent US20220112295A1

- Subject of test: T1, native human CD30L expressed on Ramos cells (human, UniProt P32971 1-234)
- T1 construct: It is used here for the native protein on human B cell lines; also called huCD30L; Native huCD30L
- T1 sequence: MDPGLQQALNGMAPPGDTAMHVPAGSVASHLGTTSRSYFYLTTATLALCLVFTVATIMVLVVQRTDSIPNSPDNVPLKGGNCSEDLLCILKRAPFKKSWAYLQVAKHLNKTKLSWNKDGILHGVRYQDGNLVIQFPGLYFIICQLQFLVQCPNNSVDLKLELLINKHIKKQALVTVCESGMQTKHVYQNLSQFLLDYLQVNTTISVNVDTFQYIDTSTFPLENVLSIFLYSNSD
- Protocol description: FACS, antibody at 50 ug/mL, inhibition of huCD30.Fc-His binding to Ramos cells
% inhibition values, listed per item
Endpoint name: % inhibition

| Binder | Reported measurement |
| --- | --- |
| Antibody B (antibody, V domains shown, also called mAb B) VH: QVQLQESGPGLVKPSETLSLTCTVSGGSISSYYWTWIRQPAGKGLEWIGRIYTSGITNYNPSLKSRVTMSVDTSKNQFSLKLSSVTAADTAVYYCARERVVGASRYYYYGVDVWGQGTTVTVSS VL: QSALTQPASVSGSPGQSITISCTGTSSDVGLYNYVSWYQQHPDKAPKLMIFEVNNRPSGVSNRFSGSNSGNTASLTISGLQAEDEADYYCSSYTSSSTWVFGGGTKLTVL | 70% |
| Antibody A (antibody, V domains shown, Human antibody (XenoMouse); also called mAb A; anti-hCD30L A) VH: QVQLQESGPGLVKPSETLSLTCTVSGGSISSYIWSWIRQPAGKGLEWIGRIYASGNTNYNPSLKSRVTMSVDTSKNQFSLKLSSMTAADTAVYYCARDYRVAGTYYYYYGLDVWGQGTTVTVSS VL: QSALTQPASVSGSPGQSITISCTGTSSDVGVYDYVSWYQQHPGKAPKLMIYEVSNRPSGVSNRFSGSKSGNTASLTISGLQTEDEADYYCSSYTSRSTWVFGGGTKLTVL | 68% |
| Antibody C (antibody, V domains shown, also called mAb C) VH: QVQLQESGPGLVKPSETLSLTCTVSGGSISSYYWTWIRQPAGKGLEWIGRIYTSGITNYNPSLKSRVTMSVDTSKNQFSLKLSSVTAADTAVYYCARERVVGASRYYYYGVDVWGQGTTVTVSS VL: QSALTQPASVSGSPGQSITISCTGTSSDIGLYDYVSWYQQHPDRAPKLIIFEVNNRPSGVSYRFSGSNSGNTASLTISGLQAEDEADYYCSSYTSSSTWVFGGGTKLTVL | 88% |
| Antibody E (antibody, V domains shown, also called mAb E) VH: QVQLQESGPRLVKPSETLSLTCTVSGGSITNNYWSWIRQPAGKGLEWIGRVYSSGLTNYKPSLKSRVTMSVDTSKNQFSLRLNSVTAADTAVYYCARERATVTTRYHYDGMDVWGQGTSVTVSS VL: QSALTQPASVSGSPGQSITISCTGSSSDIGTYNYVSWYQQYPGKAPELMIYEVNNRPSGVSDRFSGSTSGNTASLTISGLQANDEADYYCSSYSSSSTWVFGGGTKLTVL | 80% |
